From: patent US12649778

- TESTED_ON: Peptide 1593 (…) (Mycobacterium tuberculosis)
- ASSAY_REMARKS: indirect ELISA, supernatant on 1 ug/ml coated peptide
MEASUREMENT_LABEL: OD450, supernatant 1:2,430 (OD450)

| BINDER | MEASUREMENT_LABEL | EXPERIMENTAL_RESULT |
| --- | --- | --- |
| Antibody 101G10-2 (antibody, V domains shown) VH: QSVEESGGRLVTPGTPLTLTCTVSGFSLSSYDMTWVRQAPGKGLEYIGVISYGGSAYYASWAKGRFTISKTSTTVDLKITSPTTEDTATYFCARGDSDGSSELFNLWGQGTLVTVSS VL: AVLTQTPSPVSAPVGGTVSINCQSSKSVYNNNCLSWYQQKPGQPPNLLIYGASTLASGVPSRFKGSGSGTQFTLTINDVQCDDAATYYCAGCFASTNDMYGFGGGSEVVVK | OD450, supernatant 1:2,430 | 2.41 |
